# protocol.details: Compound was evaluated for half-life period
# Format: ADME
quantity.name: half-life (h)
Please give a number only; it is taken to be in h.

Given item `Cc1ccccc1[C@@H](Nc1ccc(Cl)cc1Cl)C(=O)CCc1ccncc1` , the value recorded as its half-life is 1.7

----------
# system: Corticotropin-releasing factor receptor 1 (Homo sapiens)
# Sequence (P34998 whole entry): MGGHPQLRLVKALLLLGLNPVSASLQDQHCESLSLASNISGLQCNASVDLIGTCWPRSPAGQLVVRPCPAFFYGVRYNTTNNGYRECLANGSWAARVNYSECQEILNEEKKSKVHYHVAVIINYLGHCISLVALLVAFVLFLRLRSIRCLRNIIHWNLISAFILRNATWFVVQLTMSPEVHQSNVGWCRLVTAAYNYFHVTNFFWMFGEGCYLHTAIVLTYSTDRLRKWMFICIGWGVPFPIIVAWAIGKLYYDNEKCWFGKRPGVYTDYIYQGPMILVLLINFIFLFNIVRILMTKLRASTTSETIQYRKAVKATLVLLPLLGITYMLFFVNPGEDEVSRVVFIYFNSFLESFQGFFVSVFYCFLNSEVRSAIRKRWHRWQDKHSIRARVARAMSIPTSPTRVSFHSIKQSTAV
# protocol.details: Binding affinity towards human corticotropin releasing factor (h-CRF1) receptor
// reported Ki for each item listed
Please give a number only; it is taken to be in nM.

Some solved entries appear below for comparison.
Cc1cccc(C)c1C(Nc1ccc(Cl)cc1Cl)C(=O)CCc1ccncc1 (configuration not stated) = 338
Cc1ccc(N[C@@H](C(=O)CCc2ccncc2)c2ccccc2C)c(Cl)c1 = 244
O=C(CCc1ccncc1)C(Nc1ccc(Cl)cc1Cl)c1ccccc1C(F)(F)F (configuration not stated) = 1000
COc1ccc(C(=O)C(Nc2ccc(C)cc2Cl)c2ccccc2Br)cc1O (configuration not stated) = 1070
O=C(CCc1ccncc1)C(Nc1ccc(Cl)cc1Cl)c1ccccc1Br (configuration not stated) = 204
Cc1ccccc1C(Nc1ccc(Cl)cc1Cl)C(=O)CCc1ccncc1 (configuration not stated) = 370

Given item Cc1ccc(NC(C(=O)CCc2ccncc2)c2ccccc2C)c(F)c1 (configuration not stated) , the value recorded as its Ki is 439

Given item COc1ccc(C(=O)C(Nc2ccc(Cl)cc2Cl)c2ccccc2C)cc1O (configuration not stated) , the value recorded as its Ki is 387

Given item Cc1ccccc1C(Nc1ccc(Cl)cc1C(F)(F)F)C(=O)CCc1ccncc1 (configuration not stated) , the value recorded as its Ki is 469

Given item CCc1ccccc1C(Nc1ccc(Cl)cc1Cl)C(=O)CCc1ccncc1 (configuration not stated) , the value recorded as its Ki is 330

Given item Cc1ccc(NC(C(=O)CCc2ccncc2)c2ccccc2C(C)C)c(Cl)c1 (configuration not stated) , the value recorded as its Ki is 3300
